Source listed as patent US20260184782A1.

I'd appreciate it if you could supply koff values for the items below.
# targetOfAssay: T1, recombinant human TIGIT (human, UniProt Q495A1 22-141, limits assumed)
# T1 construct: recombinant human TIGIT used in Carterra SPR; also called hTIGIT
# T1 sequence (looked up): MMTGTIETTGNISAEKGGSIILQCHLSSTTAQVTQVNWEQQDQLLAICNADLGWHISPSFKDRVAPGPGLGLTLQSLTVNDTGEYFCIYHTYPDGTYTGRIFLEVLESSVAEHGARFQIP
# protocolText: SPR Carterra, average
Numbers only, in s⁻¹.

TIGIT-SC10 (Fc fusion, VHH-Fc fusion in assay) VHH: EVQLVESGGGLVQPGGSLRLSCAASGNTFSGGFMGWFRQAPGKEREWVASVLRGGYTWYADSVKGRFTISADNSKNTAYLQMNSLKPEDTAVYYCASDPWGTRYFDHWGQGTLVTVSS = 0.0002
TIGIT-SC95 (Fc fusion, VHH-Fc fusion in assay) VHH: EVQLVESGGGLVQPGGSLRLSCAASGPTFSTNVMGWFRQAPGKEREFVSSIHWGGSSTVYADSVKGRFTISADNSKNTAYLQMNSLKPEDTAVYYCVTYSAYDFRNAWGQGTLVTVSS = 0.00352
TIGIT-SC205 (Fc fusion, VHH-Fc fusion in assay) VHH: EVQLVESGGGLVQPGGSLRLSCAASGFTFDRSWMGWFRQAPGKEREFVAAIWRSGTLKAYADSVKGRFTISADNGKNTAYLQMNSLKPEDTAVYYCAEGGTTAWGWFVPWGQGTLVTVSS = 0.0854

Note to self: koff recorded for TIGIT-SC150 (Fc fusion, VHH-Fc fusion in assay) VHH: EVQLVESGGGLVQPGGSLRLSCAASGFTLENNMMGWFRQAPGKEREFVAAISRSGTLKAYADSVKGRFTISADNSKNTAYLQVNSLKPEDTAVYYCVRVRGYSGYDCDYWGQGTLVTVSS was 0.0212
